- TGT: T1, Human PPARδ-LBD (amino acids 170–441), amino-terminal His-tagged (human, UniProt Q03181 170-441)
- T1 construct: Form used in the FRET assays; also called hPPARδ-LBD; PPARβ; source: Rosetta (DE3) pLysS cells, pET28a, purified (TALON, HiTrap Q, Superdex 75); not shown: His tag, N-terminal, kept
- T1 sequence (looked up): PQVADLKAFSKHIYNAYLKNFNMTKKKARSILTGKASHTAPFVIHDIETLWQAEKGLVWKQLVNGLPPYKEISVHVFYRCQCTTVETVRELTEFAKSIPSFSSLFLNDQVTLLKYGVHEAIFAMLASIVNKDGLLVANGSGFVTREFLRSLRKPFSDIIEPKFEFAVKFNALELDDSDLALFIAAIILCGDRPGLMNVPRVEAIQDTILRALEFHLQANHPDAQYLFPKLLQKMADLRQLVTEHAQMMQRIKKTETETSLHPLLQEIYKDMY
- PROTOCOL_NOTES: FRET or BRET; single-emission TR-FRET as a1, with the agonist titrated (pemafibrate for PPARα-LBD, seladelpar for PPARδ-LBD, pioglitazone for PPARγ-LBD); signal ratios normalised to 1% DMSO
- RUN_CONDITIONS: both partners purified
No end group written: not given here. *: point of attachment. Biotin = O=C1N[C@H]2[C@H](CS[C@H]2CCCCC(=O)*)N1
Assignment: determine reported EC50 of seladelpar (the ligand is titrated) for recruitment of the peptide for the given binders.
Only the number, expressed in nM, is required.

Quickly give me recorded EC50 of seladelpar (the ligand is titrated) for recruitment of the peptide for Biotin-EAEEPSLLKKLLLAPANTQ (also called ULight-PGC1α; source: synthetic peptide (GenScript)) [PGC1α coactivator peptide, biotin-labeled (AAs 137–155)] 48.1

Specify EC50 of seladelpar (the ligand is titrated) for recruitment of the peptide for Biotin-PVSSMAGNTKNHPMLMNLLKDNPAQ (thyroid hormone receptor-associated protein 220 (TRAP220), human, AAs 631–655, LXXLL motif LMNLL; also called ULight-TRAP220; ULight-TRAP; source: synthetic peptide (GenScript)) [TRAP220 coactivator peptide, biotin-labeled (AAs 631–655)] and stop. 54.8

Retrieve EC50 of seladelpar (the ligand is titrated) for recruitment of the peptide measured for Biotin-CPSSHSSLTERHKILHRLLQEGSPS (also called ULight-SRC1; SRC-1 M2; source: synthetic peptide (GenScript)) [SRC1 coactivator peptide, biotin-labeled (AAs 676–700)] and print it. 53.5

Please supply the value of reported EC50 of seladelpar (the ligand is titrated) for recruitment of the peptide for the item Biotin-SGNLVPDAASKHKQLSELLRGGSGS (also called ULight-CBP; source: synthetic peptide (GenScript)) [CBP coactivator peptide, biotin-labeled (AAs 56–80)] 33.2

These measurements were taken from paper PMC12024163.
